Molecular target: rat TAAR1 (Rattus norvegicus (Rat))
Sequence (Q923Y9 whole entry): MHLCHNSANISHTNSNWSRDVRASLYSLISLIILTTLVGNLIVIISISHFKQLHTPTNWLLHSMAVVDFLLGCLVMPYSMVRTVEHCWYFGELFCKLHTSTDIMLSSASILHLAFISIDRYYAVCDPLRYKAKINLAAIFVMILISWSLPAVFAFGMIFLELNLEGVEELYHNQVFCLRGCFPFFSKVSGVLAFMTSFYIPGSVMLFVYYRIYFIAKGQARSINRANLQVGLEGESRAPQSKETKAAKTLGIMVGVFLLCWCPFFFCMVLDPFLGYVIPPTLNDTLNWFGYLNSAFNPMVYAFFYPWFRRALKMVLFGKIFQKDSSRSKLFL
Assay: Radioligand binding assay on rat TAAR1
Conditions: read-out: Ki (μM) rat; rat TAAR1, membranes of HEK-293 cells, radioligand displacement
Where a name gives a salt, the structure may show the parent alone.
parameter measured: Ki (µM)
# unit: µM | format: bare number

Record excerpt, results attached:
1) O=C(Nc1ccc([C@H]2CNCCO2)cc1)c1cnn(-c2cncc(C(F)(F)F)n2)c1 [Example 38, hydrochloride] = 0.0059
2) Cc1ccnc(-n2cc(C(=O)Nc3ccc([C@H]4CNCCO4)cc3)cn2)n1 [Example 43, hydrochloride] = 0.315
3) O=C(Nc1ccc([C@H]2CNCCO2)cc1)c1cnn(-c2ccc(F)cc2)c1 [Example 4, hydrochloride] = 0.0033
4) COc1ccc(-n2cc(C(=O)Nc3ccc([C@H]4CNCCO4)cc3)cn2)cc1 [Example 3, hydrochloride] = 0.0165
5) O=C(Nc1ccc([C@H]2CNCCO2)cc1)c1cnn(-c2ncc(Cl)cn2)c1 [Example 30, hydrochloride] = 0.135
6) N#Cc1ccc(-n2cc(C(=O)Nc3ccc([C@@H]4CNCCO4)cc3)cn2)c(F)c1 [Example 49, hydrochloride] = 0.0033
7) N#Cc1cc(Br)ccc1-n1cc(C(=O)Nc2ccc([C@H]3CNCCO3)cc2)cn1 [Example 17, hydrochloride] = 0.0015
8) O=C(Nc1ccc([C@H]2CNCCO2)cc1)c1cnn(-c2cc(Cl)ccn2)c1 [Example 15, hydrochloride] = 0.0036

[in] # lookup: Ki of COc1cccc(-n2cc(C(=O)Nc3ccc([C@H]4CNCCO4)cc3)cn2)n1 [Example 18, hydrochloride]
[out] 0.0029

[in] Data request, read-out Ki, for O=C(Nc1ccc([C@H]2CNCCO2)cc1)c1cnn(-c2ccc(I)cn2)c1 [Example 10, hydrochloride]
[out] 0.0041

* * *

Target: rat TAAR1 (Rattus norvegicus (Rat))
Experiment: Radioligand binding assay on rat TAAR1;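 note: stably transfected HEK293 cell membranes with a tritiated radioligand, 1 h incubation at 4 °C, nonspecific binding taken as binding with 10 µM unlabeled ligand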
Conditions: read-out: Ki (μM) rat; rat TAAR1, membranes of HEK-293 cells, radioligand displacement
Where a name gives a salt, the structure may show the parent alone.
parameter measured: Ki (µM)
Just the number please, in µM, no unit attached.

Here is how some molecules turned out for Ki.
1. N#Cc1ccc(-n2cc(C(=O)Nc3ccc([C@H]4CNCCO4)cc3)cn2)cc1 [Example 6, hydrochloride] = 0.007
2. O=C(Nc1ccc([C@H]2CNCCO2)cc1)c1cnn(-c2cncc(Cl)n2)c1 [Example 33, hydrochloride] = 0.0068

[in] Quick one: Ki for O=C(Nc1ccc([C@H]2CNCCO2)cc1)c1cnn(-c2ccnc(C(F)(F)F)c2)c1 [Example 50, hydrochloride] ?
[out] 0.0038

* * *

Biological target: UniProt:Q923Y8
Sequence (Q923Y8 whole entry): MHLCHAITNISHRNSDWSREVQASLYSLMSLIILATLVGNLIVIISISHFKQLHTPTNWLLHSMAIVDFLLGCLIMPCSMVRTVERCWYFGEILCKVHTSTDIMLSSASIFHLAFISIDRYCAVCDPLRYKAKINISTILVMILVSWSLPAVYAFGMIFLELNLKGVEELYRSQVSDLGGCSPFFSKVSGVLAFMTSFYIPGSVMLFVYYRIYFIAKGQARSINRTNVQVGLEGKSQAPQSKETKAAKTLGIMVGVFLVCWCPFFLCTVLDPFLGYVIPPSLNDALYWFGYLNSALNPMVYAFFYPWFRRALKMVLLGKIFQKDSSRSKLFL
Assay: Radioligand binding assay on mouse TAAR1
Conditions: read-out: Ki (μM) mouse; mouse TAAR1, membranes of HEK-293 cells, radioligand displacement
Structures can show the parent of a compound that is named as a salt.
parameter measured: Ki (µM)
Dear colleague, please return just the value in µM, with no unit written.

Worked set:
1) O=C(Nc1ccc([C@H]2CNCCO2)cc1)c1cnn(-c2ccnc(Br)c2)c1 [Example 16, hydrochloride] = 0.0035
2) O=C(Nc1ccc([C@H]2CNCCO2)cc1)c1cnn(-c2cccc(OC(F)F)c2)c1 [Example 22, hydrochloride] = 0.001
3) N#Cc1ccc(-n2cc(C(=O)Nc3ccc([C@H]4CNCCO4)cc3)cn2)nc1 [Example 8, hydrochloride] = 0.0089

[in] Give its Ki value. Item: O=C(Nc1ccc([C@H]2CNCCO2)cc1)c1cnn(-c2ccc(OC(F)(F)F)cc2)c1 [Example 26, hydrochloride]
[out] 0.0007
